Cited source: patent US10517889B2

- Test system: human SMAD7 mRNA
- experiment: Antisense inhibition of human SMAD7 mRNA expression in Hep3B cells by 3-10-3 cEt gapmers, 10,000 nM, electroporation (Example 2)
- Type: cell-based
- measurement.parameters: Hep3B cells, electroporation, 10,000 nM antisense oligonucleotide, approximately 24 hours, RTS5062, relative to untreated control cells
Strand notation (5' to 3'): a small letter for the sugar, then the base; units joined by * are phosphorothioate-linked, units joined directly phosphodiester-linked; [ ] holds rarer units or linkages, { } end groups; capitals alone tell only the bases. k = constrained ethyl (cEt); [5mC] = 5-methylcytosine; d = 2'-deoxy (DNA)
parameter: % inhibition of SMAD7 mRNA expression (%)
Return type: number; implicit unit %.

A selection of reference data follows.
substance: 799540 (kA*kG*k[5mC]*dT*dG*dA*dA*dG*d[5mC]*d[5mC]*d[5mC]*d[5mC]*d[5mC]*k[5mC]*kA*kA; antisense) [compound 799540]
system.tested: human SMAD7 mRNA
units.label: %
% inhibition of SMAD7 mRNA expression: 76

substance: 790710 (kG*kG*kG*dA*dA*dA*dT*dG*dT*dT*d[5mC]*dT*dA*k[5mC]*k[5mC]*kT; antisense) [compound 790710]
system.tested: human SMAD7 mRNA
units.label: %
% inhibition of SMAD7 mRNA expression: 15

substance: 799597 (kA*kA*k[5mC]*dT*d[5mC]*dT*dG*dA*dA*d[5mC]*dG*dG*dA*kA*kA*kG; antisense) [compound 799597]
system.tested: human SMAD7 mRNA
units.label: %
% inhibition of SMAD7 mRNA expression: 46

Give % inhibition of SMAD7 mRNA expression for the following substance: 799698 (antisense kT*kA*kA*dT*dA*dG*dT*dT*dT*dT*d[5mC]*dT*d[5mC]*kT*k[5mC]*kA) [compound 799698]
33

Please indicate % inhibition of SMAD7 mRNA expression recorded for 799754 (antisense kG*kG*k[5mC]*dT*dA*dA*dG*dT*dG*d[5mC]*d[5mC]*dA*dG*kG*kT*kG) [compound 799754]
0

Read off the recorded % inhibition of SMAD7 mRNA expression for 799554 (kT*kA*k[5mC]*d[5mC]*dT*dG*dT*dG*dA*dG*d[5mC]*d[5mC]*d[5mC]*kT*kG*kA; antisense) [compound 799554]
0

====

- experiment: Hematology assays after oral gavage in CD-1 mice (Example 7)
- Type: in vivo
- measurement.parameters: 500 mg/kg oral gavage once daily for 4 weeks
# maps each entry to its Hemoglobin
Please reply with the bare figure in g/dL and do not write the unit itself.

Consider the substance 798781 (CGTAAGATTCACAGCA; 3-10-3 cEt gapmer, further chemistry not given here) [compound 798781] and give its recorded Hemoglobin.
15.2

Complete the entry with Hemoglobin for 830037 (antisense CTATTGGCTGATCTGG; 3-10-3 cEt gapmer, further chemistry not given here) [compound 830037]
15.4

Return value of Hemoglobin for input 830121 (AGAATCAAGCCCTGGC; 3-10-3 cEt gapmer, further chemistry not given here) [compound 830121] , no commentary.
15.1

Provide measured Hemoglobin value, entry: 790615 (CCAATGAGAATGCTTC; 3-10-3 cEt gapmer, further chemistry not given here) [compound 790615]
15.2

Dear colleague, please send me the reported Hemoglobin for 830025 (antisense TTTGTAAATCGAAAGC; 3-10-3 cEt gapmer, further chemistry not given here) [compound 830025] when you can.
15.0

Dear colleague, please send me the reported Hemoglobin for 829994 (GGAGGCAGGGCCGCGA; 3-10-3 cEt gapmer, further chemistry not given here) [compound 829994] when you can.
15.2

====

- Test system: human SMAD7 mRNA
- experiment: Dose-dependent inhibition of human SMAD7 mRNA expression in Hep3B cells (Example 3, Study 1 and 2)
- Type: cell-based
- measurement.parameters: 20000.0 nM, electroporation, approximately 16 hours, Study 1
Strand notation (5' to 3'): a small letter for the sugar, then the base; units joined by * are phosphorothioate-linked, units joined directly phosphodiester-linked; [ ] holds rarer units or linkages, { } end groups; capitals alone tell only the bases. e = 2'-O-(2-methoxyethyl) (MOE); [5mC] = 5-methylcytosine; d = 2'-deoxy (DNA)
Listed next: entries and their corresponding % inhibition of SMAD7 mRNA expression.
The reply should contain only the number, in %.

Completed entries (count: 3):
substance: 771439 (eG*eG*e[5mC]*eT*eG*d[5mC]*dG*d[5mC]*dG*d[5mC]*d[5mC]*dG*dG*d[5mC]*dG*eG*eG*e[5mC]*eG*e[5mC]; antisense) [compound 771439]
system.tested: human SMAD7 mRNA
parameter: % inhibition of SMAD7 mRNA expression
test.result: 55
//
substance: 771795 (antisense e[5mC]*eG*eT*e[5mC]*eT*dG*d[5mC]*dG*dG*d[5mC]*dA*dA*dA*dA*d[5mC]*e[5mC]*e[5mC]*eA*e[5mC]*e[5mC]) [compound 771795]
system.tested: human SMAD7 mRNA
parameter: % inhibition of SMAD7 mRNA expression
test.result: 58
//
substance: 771737 (antisense eT*e[5mC]*eA*eA*eA*dT*dG*dA*dA*d[5mC]*d[5mC]*d[5mC]*dT*dG*dG*eT*eT*eA*eT*eA) [compound 771737]
system.tested: human SMAD7 mRNA
parameter: % inhibition of SMAD7 mRNA expression
test.result: 16

Give me measured % inhibition of SMAD7 mRNA expression, please, for this substance: 771715 (antisense eA*eG*eT*e[5mC]*eT*d[5mC]*d[5mC]*dG*dA*dG*dT*dT*dA*dT*d[5mC]*e[5mC]*e[5mC]*e[5mC]*eA*eT) [compound 771715]
49

Recall and state the measured % inhibition of SMAD7 mRNA expression for 771849 (antisense e[5mC]*eT*eA*eG*eG*d[5mC]*dT*dG*dG*dT*d[5mC]*dA*d[5mC]*dT*dT*e[5mC]*e[5mC]*eA*e[5mC]*eT) [compound 771849] .
35

Report % inhibition of SMAD7 mRNA expression for 771733 (antisense eT*eG*eA*e[5mC]*eA*dG*d[5mC]*d[5mC]*dA*d[5mC]*dA*dA*dG*dT*d[5mC]*eA*e[5mC]*eA*eA*e[5mC]) [compound 771733]
61

Recall and state the measured % inhibition of SMAD7 mRNA expression for 771808 (antisense e[5mC]*e[5mC]*e[5mC]*e[5mC]*eA*dA*dA*dG*dT*d[5mC]*d[5mC]*dA*d[5mC]*dG*d[5mC]*eT*e[5mC]*eA*eT*eG) [compound 771808] .
66

====

- System: human SMAD7 mRNA
- experiment: Antisense inhibition of human SMAD7 mRNA expression in Hep3B cells by 3-10-3 cEt gapmers, 10,000 nM, electroporation (Example 2)
- Format: cell-based
- measurement.parameters: Hep3B cells, electroporation with 10,000 nM antisense oligonucleotide, approximately 24 hours, SMAD7 mRNA by RT-PCR (RTS5062), relative to untreated control cells
- Description: Antisense oligonucleotides were designed to target human SMAD7 mRNA and were tested for their effects on SMAD7 mRNA expression in vitro. […] After a treatment period of approximately 24 hours, RNA was isolated from the cells and SMAD7 mRNA levels were measured by quantitative real-time PCR. […] SMAD7 mRNA levels were adjusted according to total RNA content, as measured by RIBOGREEN®. […]
Strand notation (5' to 3'): a small letter for the sugar, then the base; units joined by * are phosphorothioate-linked, units joined directly phosphodiester-linked; [ ] holds rarer units or linkages, { } end groups; capitals alone tell only the bases. k = constrained ethyl (cEt); [5mC] = 5-methylcytosine; d = 2'-deoxy (DNA)
Catalogue of substances with associated % Inhibition
Field format: number, assumed %, no unit text.

Answered examples (2):
substance: 830207 (kA*kG*kG*dT*dG*dA*d[5mC]*dT*d[5mC]*dA*dT*d[5mC]*dA*kG*kG*k[5mC]; antisense) [compound 830207]
parameter: % Inhibition
test.result: 80
--
substance: 830201 (antisense k[5mC]*kT*kG*dA*dA*dG*dG*d[5mC]*dT*dA*d[5mC]*dA*d[5mC]*k[5mC]*kA*kA) [compound 830201]
parameter: % Inhibition
test.result: 37

Consider the additional substance presented here.
Input 799982 (k[5mC]*kA*k[5mC]*d[5mC]*dA*d[5mC]*dG*d[5mC]*d[5mC]*dT*d[5mC]*dG*d[5mC]*kT*kA*kA; antisense) [compound 799982] , output reported % Inhibition.
0

====

- Test system: human SMAD7 mRNA
- experiment: Antisense inhibition of human SMAD7 mRNA expression in Hep3B cells by 5-10-5 MOE gapmers, single concentration, electroporation, RT-PCR (Example 1, Study 1 and 2)
- Type: cell-based
- measurement.parameters: electroporation, 15,000 nM, approximately 24 hours, relative to untreated control cells, gapmers targeting SEQ ID NO: 1 and 2
Strand notation (5' to 3'): a small letter for the sugar, then the base; units joined by * are phosphorothioate-linked, units joined directly phosphodiester-linked; [ ] holds rarer units or linkages, { } end groups; capitals alone tell only the bases. e = 2'-O-(2-methoxyethyl) (MOE); [5mC] = 5-methylcytosine; d = 2'-deoxy (DNA)
parameter: % inhibition of SMAD7 mRNA expression (%)
Give your result in % as a bare value.

Previously resolved entries follow.
substance: 771525 (antisense eT*eT*eT*eG*e[5mC]*dA*dT*dG*dA*dA*dA*dA*dG*d[5mC]*dA*eA*eG*e[5mC]*eA*e[5mC]) [compound 771525]
% inhibition of SMAD7 mRNA expression / %: 28
//
substance: 771853 (antisense eA*eG*e[5mC]*eT*eT*dG*dG*dA*dA*dG*d[5mC]*d[5mC]*dA*dT*d[5mC]*eG*eG*eT*eT*eG) [compound 771853]
% inhibition of SMAD7 mRNA expression / %: 36
//
substance: 771376 (antisense eA*e[5mC]*eG*e[5mC]*eT*d[5mC]*dT*dA*dA*dA*d[5mC]*dA*dG*d[5mC]*dA*eT*eG*eA*eA*eA) [compound 771376]
% inhibition of SMAD7 mRNA expression / %: 17
//
substance: 771581 (antisense eG*eG*eG*eA*e[5mC]*d[5mC]*d[5mC]*d[5mC]*dA*dG*d[5mC]*d[5mC]*dG*d[5mC]*d[5mC]*eA*eG*e[5mC]*eT*eT) [compound 771581]
% inhibition of SMAD7 mRNA expression / %: 58
//
substance: 771613 (antisense e[5mC]*eT*eA*eA*eG*dT*d[5mC]*d[5mC]*dG*dG*dG*dA*dA*dA*dA*eA*e[5mC]*e[5mC]*eT*eG) [compound 771613]
% inhibition of SMAD7 mRNA expression / %: 21

Give reported % inhibition of SMAD7 mRNA expression value for 771494 (antisense e[5mC]*eA*eG*e[5mC]*eA*d[5mC]*dG*dG*dG*d[5mC]*dA*dG*d[5mC]*dT*dG*e[5mC]*eT*eG*eA*eT) [compound 771494]
20

Determine from records and report % inhibition of SMAD7 mRNA expression for 771541 (antisense eT*e[5mC]*eT*eT*eT*dT*d[5mC]*dA*dT*dA*dA*dG*d[5mC]*dT*dA*eT*eT*eT*e[5mC]*eT) [compound 771541]
35

Tell me its % inhibition of SMAD7 mRNA expression given 771486 (antisense e[5mC]*eG*eG*eT*eA*dA*dA*dG*d[5mC]*d[5mC]*d[5mC]*dG*dT*d[5mC]*d[5mC]*eA*e[5mC]*eG*eG*e[5mC]) [compound 771486] as the entry.
52

Specify measured % inhibition of SMAD7 mRNA expression for 771384 (antisense eT*eG*e[5mC]*eT*eG*dT*dG*dG*dA*dT*dT*dT*dG*dA*dA*eA*eA*eG*eG*eG) [compound 771384] .
18

Answer with the recorded % inhibition of SMAD7 mRNA expression for the substance listed here: 771549 (antisense e[5mC]*e[5mC]*eT*e[5mC]*eT*dT*d[5mC]*d[5mC]*dT*dA*dT*d[5mC]*dA*dG*dG*eG*eT*eG*eT*e[5mC]) [compound 771549]
49

Fill in reported % inhibition of SMAD7 mRNA expression for this entry: 771717 (antisense eT*e[5mC]*e[5mC]*e[5mC]*eA*dT*d[5mC]*dT*dA*dT*d[5mC]*dG*dA*dA*dT*e[5mC]*eA*e[5mC]*e[5mC]*e[5mC]) [compound 771717]
57
